B1: Caulobacter ParB omega fusion; a variant is named by its letters at X, in order, B8GW30 (parent)
chain: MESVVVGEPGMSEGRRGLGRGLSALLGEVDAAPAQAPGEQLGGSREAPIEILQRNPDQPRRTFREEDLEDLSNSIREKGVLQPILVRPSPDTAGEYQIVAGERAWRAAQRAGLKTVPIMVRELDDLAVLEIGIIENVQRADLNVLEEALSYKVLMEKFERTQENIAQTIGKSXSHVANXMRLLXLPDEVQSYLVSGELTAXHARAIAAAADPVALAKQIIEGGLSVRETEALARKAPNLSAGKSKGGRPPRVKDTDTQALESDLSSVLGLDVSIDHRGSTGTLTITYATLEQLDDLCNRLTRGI

Variants of: B1
assay.details: one-hybrid fitness for binding NBS DNA (the Noc-binding site; scaled: cognate 1, non-cognate 0); higher = stronger binding
settings: with NBS DNA site
Over roughly 81,000 sequences, “one-hybrid fitness for binding NBS DNA” has its median near -0.1; the highest 2% begin near 0.36. The entries come from a sample that favours the highest values as a whole.

>  <mutation.string>
RVCT

>  <one-hybrid fitness for binding NBS DNA>
0.433

$$$$
>  <mutation.string>
RARR

>  <one-hybrid fitness for binding NBS DNA>
0.635

$$$$
>  <mutation.string>
QQRF

>  <one-hybrid fitness for binding NBS DNA>
0.387

$$$$
>  <mutation.string>
RKFD

>  <one-hybrid fitness for binding NBS DNA>
≤ 0.2

$$$$
>  <mutation.string>
RACR

>  <one-hybrid fitness for binding NBS DNA>
0.379

$$$$
>  <mutation.string>
QQPA

>  <one-hybrid fitness for binding NBS DNA>
≤ 0.2

$$$$
>  <mutation.string>
DSAV

>  <one-hybrid fitness for binding NBS DNA>
≤ 0.2

$$$$
>  <mutation.string>
RCFT

>  <one-hybrid fitness for binding NBS DNA>
0.423

$$$$
>  <mutation.string>
TYPP

>  <one-hybrid fitness for binding NBS DNA>
≤ 0.2

$$$$
>  <mutation.string>
APCN

>  <one-hybrid fitness for binding NBS DNA>
≤ 0.2

$$$$
>  <mutation.string>
RACH

>  <one-hybrid fitness for binding NBS DNA>
≤ 0.2

$$$$
>  <mutation.string>
SIIE

>  <one-hybrid fitness for binding NBS DNA>
≤ 0.2

$$$$
>  <mutation.string>
CMMG

>  <one-hybrid fitness for binding NBS DNA>
≤ 0.2

$$$$
>  <mutation.string>
QRNP

>  <one-hybrid fitness for binding NBS DNA>
0.308

$$$$
>  <mutation.string>
RVCP

>  <one-hybrid fitness for binding NBS DNA>
≤ 0.2

$$$$
>  <mutation.string>
RDPN

>  <one-hybrid fitness for binding NBS DNA>
≤ 0.2

$$$$
>  <mutation.string>
RAHP

>  <one-hybrid fitness for binding NBS DNA>
≤ 0.2

$$$$
>  <mutation.string>
MPIT

>  <one-hybrid fitness for binding NBS DNA>
≤ 0.2

$$$$
>  <mutation.string>
GQRS

>  <one-hybrid fitness for binding NBS DNA>
≤ 0.2

$$$$
>  <mutation.string>
KREW

>  <one-hybrid fitness for binding NBS DNA>
≤ 0.2

$$$$
>  <mutation.string>
QRYH

>  <one-hybrid fitness for binding NBS DNA>
0.486

$$$$
>  <mutation.string>
QYEV

>  <one-hybrid fitness for binding NBS DNA>
≤ 0.2

$$$$
>  <mutation.string>
QCHA

>  <one-hybrid fitness for binding NBS DNA>
0.422

$$$$
>  <mutation.string>
PFSK

>  <one-hybrid fitness for binding NBS DNA>
≤ 0.2

$$$$
>  <mutation.string>
STQW

>  <one-hybrid fitness for binding NBS DNA>
≤ 0.2

$$$$
>  <mutation.string>
NLCF

>  <one-hybrid fitness for binding NBS DNA>
≤ 0.2

$$$$
>  <mutation.string>
RFPW

>  <one-hybrid fitness for binding NBS DNA>
≤ 0.2

$$$$
>  <mutation.string>
QRHA

>  <one-hybrid fitness for binding NBS DNA>
0.629

$$$$
>  <mutation.string>
REMS

>  <one-hybrid fitness for binding NBS DNA>
≤ 0.2

$$$$
>  <mutation.string>
RVRS

>  <one-hybrid fitness for binding NBS DNA>
0.577

$$$$
>  <mutation.string>
QQSA

>  <one-hybrid fitness for binding NBS DNA>
0.37

$$$$
>  <mutation.string>
RKFT

>  <one-hybrid fitness for binding NBS DNA>
0.437

$$$$
>  <mutation.string>
VQNC

>  <one-hybrid fitness for binding NBS DNA>
≤ 0.2

$$$$
>  <mutation.string>
QQRP

>  <one-hybrid fitness for binding NBS DNA>
0.312

$$$$
>  <mutation.string>
RVCD

>  <one-hybrid fitness for binding NBS DNA>
≤ 0.2

$$$$
>  <mutation.string>
RACP

>  <one-hybrid fitness for binding NBS DNA>
≤ 0.2

$$$$
>  <mutation.string>
VRHN

>  <one-hybrid fitness for binding NBS DNA>
≤ 0.2

$$$$
>  <mutation.string>
KQRS

>  <one-hybrid fitness for binding NBS DNA>
0.224

$$$$
>  <mutation.string>
LHGL

>  <one-hybrid fitness for binding NBS DNA>
≤ 0.2

$$$$
>  <mutation.string>
TCFS

>  <one-hybrid fitness for binding NBS DNA>
≤ 0.2

$$$$
>  <mutation.string>
QQRS

>  <one-hybrid fitness for binding NBS DNA>
0.714

$$$$
>  <mutation.string>
VFEC

>  <one-hybrid fitness for binding NBS DNA>
≤ 0.2

$$$$
>  <mutation.string>
GNMC

>  <one-hybrid fitness for binding NBS DNA>
≤ 0.2

$$$$
>  <mutation.string>
QQLA

>  <one-hybrid fitness for binding NBS DNA>
0.294

$$$$
>  <mutation.string>
QSHA

>  <one-hybrid fitness for binding NBS DNA>
0.275

$$$$
>  <mutation.string>
RSFT

>  <one-hybrid fitness for binding NBS DNA>
≤ 0.2

$$$$
>  <mutation.string>
TYAQ

>  <one-hybrid fitness for binding NBS DNA>
≤ 0.2

$$$$
>  <mutation.string>
RAWR

>  <one-hybrid fitness for binding NBS DNA>
0.248

$$$$
>  <mutation.string>
HLMG

>  <one-hybrid fitness for binding NBS DNA>
≤ 0.2

$$$$
>  <mutation.string>
GCTC

>  <one-hybrid fitness for binding NBS DNA>
≤ 0.2

$$$$
>  <mutation.string>
RASD

>  <one-hybrid fitness for binding NBS DNA>
≤ 0.2

$$$$
>  <mutation.string>
HAFN

>  <one-hybrid fitness for binding NBS DNA>
≤ 0.2

$$$$
>  <mutation.string>
EIKV

>  <one-hybrid fitness for binding NBS DNA>
≤ 0.2

$$$$
>  <mutation.string>
DLVK

>  <one-hybrid fitness for binding NBS DNA>
≤ 0.2

$$$$
>  <mutation.string>
AFRG

>  <one-hybrid fitness for binding NBS DNA>
≤ 0.2

$$$$
>  <mutation.string>
QDWR

>  <one-hybrid fitness for binding NBS DNA>
≤ 0.2

$$$$
>  <mutation.string>
QQIA

>  <one-hybrid fitness for binding NBS DNA>
≤ 0.2

$$$$
>  <mutation.string>
QRND

>  <one-hybrid fitness for binding NBS DNA>
0.306

$$$$
>  <mutation.string>
QREH

>  <one-hybrid fitness for binding NBS DNA>
0.258

$$$$
>  <mutation.string>
RANN

>  <one-hybrid fitness for binding NBS DNA>
≤ 0.2

$$$$
>  <mutation.string>
RVCS

>  <one-hybrid fitness for binding NBS DNA>
0.444

$$$$
>  <mutation.string>
LNIG

>  <one-hybrid fitness for binding NBS DNA>
≤ 0.2

$$$$
>  <mutation.string>
QQRH

>  <one-hybrid fitness for binding NBS DNA>
0.645

$$$$
>  <mutation.string>
EHDV

>  <one-hybrid fitness for binding NBS DNA>
≤ 0.2

$$$$
>  <mutation.string>
QQQH

>  <one-hybrid fitness for binding NBS DNA>
≤ 0.2

$$$$
>  <mutation.string>
CTPT

>  <one-hybrid fitness for binding NBS DNA>
≤ 0.2

$$$$
>  <mutation.string>
QQRL

>  <one-hybrid fitness for binding NBS DNA>
0.329

$$$$
>  <mutation.string>
PMWG

>  <one-hybrid fitness for binding NBS DNA>
≤ 0.2

$$$$
>  <mutation.string>
LHIV

>  <one-hybrid fitness for binding NBS DNA>
≤ 0.2

$$$$
>  <mutation.string>
RVCY

>  <one-hybrid fitness for binding NBS DNA>
≤ 0.2

$$$$
>  <mutation.string>
RKAT

>  <one-hybrid fitness for binding NBS DNA>
0.643

$$$$
>  <mutation.string>
RAHH

>  <one-hybrid fitness for binding NBS DNA>
≤ 0.2

$$$$
>  <mutation.string>
MHKT

>  <one-hybrid fitness for binding NBS DNA>
≤ 0.2

$$$$
>  <mutation.string>
QEKS

>  <one-hybrid fitness for binding NBS DNA>
≤ 0.2

$$$$
>  <mutation.string>
PIAK

>  <one-hybrid fitness for binding NBS DNA>
≤ 0.2

$$$$
>  <mutation.string>
QPHA

>  <one-hybrid fitness for binding NBS DNA>
≤ 0.2

$$$$
>  <mutation.string>
QQYF

>  <one-hybrid fitness for binding NBS DNA>
≤ 0.2

$$$$
>  <mutation.string>
NLTF

>  <one-hybrid fitness for binding NBS DNA>
≤ 0.2

$$$$
>  <mutation.string>
RKFH

>  <one-hybrid fitness for binding NBS DNA>
0.212

$$$$
